Biological target: UniProtKB P0DTD1
Conditions: 20.0 µM
Can you tell me inhibition for the items I'm about to list?
Answer in %, number only, no unit symbol.

Field inhibition (entry O=C(Nc1cccnc1)c1cccc(Cl)c1 ) reads 0

Field inhibition (entry C=CC(=O)N(c1ccc(C2(C)CC2)cc1)C(C(=O)Nc1ccc(OC)cc1C)c1cccnc1 (stereo unspecified) ) reads 0

Field inhibition (entry C=CC(=O)N(c1cc(C(C)(C)C)n[nH]1)C(C(=O)Nc1ccc(Cl)cc1)c1cccnc1 (stereo unspecified) ) reads 0

Field inhibition (entry CCCSCC(=O)C(C#N)C(=O)Nc1ccc(F)cc1F (stereo unspecified) ) reads 3.06

Field inhibition (entry C=CC(=O)N(c1ccc(C(C)(C)C)cc1)C(C(=O)NC)c1cccnc1 (stereo unspecified) ) reads 57.4

Field inhibition (entry COc1ccc2[nH]cc(CCNS(C)(=O)=O)c2c1 ) reads 0

Field inhibition (entry O=C(NCCNc1cccnn1)c1ccccc1NS(=O)(=O)c1cc(F)ccc1F ) reads 0

Field inhibition (entry COC(=O)c1sc(NS(=O)(=O)c2ccc(CF)cc2)nc1C(C)(C)C ) reads 0

Field inhibition (entry NS(=O)(=O)c1ccc(N2CCC(c3nc4ccccc4s3)CC2)cc1 ) reads 0

Field inhibition (entry Cc1ccncc1NC(=O)Nc1cccc(Cl)c1 ) reads 25.6

Field inhibition (entry N#Cc1cccc(CN2CCN(C(=O)CCl)CC2)c1 ) reads 64.3

Field inhibition (entry C=CC(=O)N(c1ccc(N(C)C)c(C)c1)C(C(=O)Nc1c(C)cccc1CC)c1cccnc1 (stereo unspecified) ) reads 0

Field inhibition (entry CS(=O)(=O)NCCc1ccccc1O ) reads 0

Field inhibition (entry CCN(C)CC1CCN(c2ccc(S(N)(=O)=O)cc2)CC1 ) reads 0

Field inhibition (entry O=C(CCl)NC(CO)c1cccc(Cl)c1 (stereo unspecified) ) reads 16

Field inhibition (entry C=CC(=O)N(c1ccc(SC)cc1)C(C(=O)Nc1ccc(OC)cc1)c1cccnc1 (stereo unspecified) ) reads 0

Field inhibition (entry Cc1cccc(C)c1OCC(=O)NCCc1ccccc1 ) reads 0

Field inhibition (entry CN(Cc1ccc(OCc2cccs2)cc1)C(=O)Cn1nnc2ccccc21 ) reads 0

Field inhibition (entry C=CC(=O)N(c1ccc(C(F)(F)F)cc1)C(C(=O)Nc1c(C)cccc1CC)c1cccnc1 (stereo unspecified) ) reads 23.9

Field inhibition (entry C=C(CN(C)C)C(=O)N1Cc2ccccc2C(c2ccccc2)C1 (stereo unspecified) ) reads 0

Field inhibition (entry C=CC(=O)N(c1ccc(S(F)(F)(F)(F)F)cc1)C(C(=O)Nc1ccc(OC)cc1)c1cccnc1 (stereo unspecified) ) reads 10.4

* * *

Target: SARS-CoV-2 Main Protease (SARS-CoV-2)
For each record, check the reported IC50: if it is below 20 µM write true (1), else write false (0).

Please state whether IC50 is below 20 µM for Cc1ccc(N(Cc2cscn2)C(=O)Cc2cncc3ccccc23)cc1 true (1)

Please state whether IC50 is below 20 µM for O=C(Cc1ccsc1)N1CCN(c2cc(-c3cccs3)n[nH]2)CC1 false (0)

Please state whether IC50 is below 20 µM for Cc1ccc(S(=O)(=O)NC2CCN(C(=O)CCl)CC2)cc1 true (1)

Please state whether IC50 is below 20 µM for NS(=O)(=O)c1ccc(N2CCC(N3CCCCCC3)CC2)cc1 true (1)

Please state whether IC50 is below 20 µM for O=C(Nc1cncc2ccccc12)C1COc2ccc(Cl)cc21 (stereo unspecified) true (1)

Please state whether IC50 is below 20 µM for COc1ccc(Cl)cc1OCCNC(=O)c1cc(=O)[nH]c2ccccc12 true (1)

The reported numbers originate from the COVID Moonshot data (paper PMC11187573).
